biological target: FGFR2 (Homo sapiens (Human), UniProt P21802); test: Enzyme binding assay (KINOMEscan); settings: DiscoveRx, pKd = -log Kd (M)
Sequence (P21802 22-821): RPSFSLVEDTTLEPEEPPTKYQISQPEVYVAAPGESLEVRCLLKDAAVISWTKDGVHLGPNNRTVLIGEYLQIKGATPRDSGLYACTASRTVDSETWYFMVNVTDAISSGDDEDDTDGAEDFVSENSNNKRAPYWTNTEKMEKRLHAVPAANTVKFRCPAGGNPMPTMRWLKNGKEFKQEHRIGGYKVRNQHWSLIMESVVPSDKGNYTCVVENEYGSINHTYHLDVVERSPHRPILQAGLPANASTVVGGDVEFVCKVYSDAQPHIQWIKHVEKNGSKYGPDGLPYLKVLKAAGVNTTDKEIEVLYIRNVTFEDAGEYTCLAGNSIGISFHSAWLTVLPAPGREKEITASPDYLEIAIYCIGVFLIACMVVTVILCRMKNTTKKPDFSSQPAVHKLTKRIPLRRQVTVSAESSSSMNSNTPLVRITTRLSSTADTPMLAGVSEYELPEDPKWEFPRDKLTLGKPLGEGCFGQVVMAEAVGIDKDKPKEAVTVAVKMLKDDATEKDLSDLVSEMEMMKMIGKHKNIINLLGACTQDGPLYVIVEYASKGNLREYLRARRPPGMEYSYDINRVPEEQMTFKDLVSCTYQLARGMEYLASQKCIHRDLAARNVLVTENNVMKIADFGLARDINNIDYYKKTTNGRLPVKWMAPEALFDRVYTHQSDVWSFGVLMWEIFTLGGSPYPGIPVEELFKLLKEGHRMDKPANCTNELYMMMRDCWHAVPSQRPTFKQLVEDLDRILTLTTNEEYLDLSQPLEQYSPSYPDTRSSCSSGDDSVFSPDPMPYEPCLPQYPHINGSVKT
assay metric: Kd (M)
Number in M, nothing else.

// Kd lookup, key: COc1cc(OC)c2c(c1F)N(c1ccc3ncn(-c4cnn(C)c4)c(=O)c3c1)CCN(C(C)C)C2 1.86e-06

// Kd lookup, key: COc1cc(OC)c2c(c1)N(c1ccc3ncc(-c4cn[nH]c4)cc3c1)CCN(C(C)C)C2 8.91e-07

---

target: UniProt:P22455; experiment: Enzyme binding assay (KINOMEscan); conditions: DiscoveRx, pKd = -log Kd (M)
Sequence (P22455 22-802): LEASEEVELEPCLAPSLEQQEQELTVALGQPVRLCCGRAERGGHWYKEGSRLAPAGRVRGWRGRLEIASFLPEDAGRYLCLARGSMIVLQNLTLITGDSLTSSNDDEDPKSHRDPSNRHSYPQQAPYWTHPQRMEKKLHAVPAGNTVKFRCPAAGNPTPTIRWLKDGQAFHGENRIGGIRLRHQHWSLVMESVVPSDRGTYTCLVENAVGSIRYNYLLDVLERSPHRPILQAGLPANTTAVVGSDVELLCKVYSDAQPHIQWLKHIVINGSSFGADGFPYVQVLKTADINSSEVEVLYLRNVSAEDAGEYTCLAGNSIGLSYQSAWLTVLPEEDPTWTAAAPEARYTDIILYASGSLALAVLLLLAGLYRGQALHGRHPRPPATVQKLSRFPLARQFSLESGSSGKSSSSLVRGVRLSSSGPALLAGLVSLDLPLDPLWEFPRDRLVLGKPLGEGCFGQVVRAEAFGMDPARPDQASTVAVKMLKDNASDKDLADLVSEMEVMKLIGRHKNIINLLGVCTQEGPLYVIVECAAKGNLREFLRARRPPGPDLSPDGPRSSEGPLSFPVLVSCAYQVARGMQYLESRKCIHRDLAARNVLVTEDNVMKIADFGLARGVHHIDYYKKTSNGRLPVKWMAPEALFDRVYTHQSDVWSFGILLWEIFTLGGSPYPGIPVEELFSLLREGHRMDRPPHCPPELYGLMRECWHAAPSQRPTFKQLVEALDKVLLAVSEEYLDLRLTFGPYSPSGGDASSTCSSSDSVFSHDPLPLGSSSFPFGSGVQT
Exercise: for every item that follows, state its recorded Kd.

// Kd lookup, key: COc1cc(OC)c2c(c1)N(c1ccc3ncc(-c4cnn(C)c4)cc3c1)CCN(C(C)C)C2 [Compound 1] 2.45e-06 M

// Kd lookup, key: CC(C)N1CCN(c2ccc3ncc(-c4cnn(C)c4)cc3c2)c2cc(O)cc(O)c2C1 [Compound 6] > 3.02e-06 M

// Kd lookup, key: COc1cc(OC)c2c(c1)N(c1ccc3ncc(-c4cnn(C)c4)cc3n1)CCN(C(C)C)C2 [Compound 9] 1.91e-07 M

// Kd lookup, key: COc1cc(O)c2c(c1)N(c1ccc3ncc(-c4cnn(C)c4)cc3c1)CCN(C(C)C)C2 [Compound 5] > 3.02e-06 M

// Kd lookup, key: COc1cc(O)cc2c1CN(C(C)C)CCN2c1ccc2ncc(-c3cnn(C)c3)cc2c1 [Compound 4] > 3.02e-06 M

// Kd lookup, key: COc1cc(OC)c2c(c1)N(c1ccc3ncc(-c4cn[nH]c4)cc3c1)CCN(C(C)C)C2 [Compound 3] 1.38e-06 M

// Kd lookup, key: COc1cc(OC)c2c(c1)N(c1ccc3ncc(-c4cnn(C)c4)cc3c1)CCN(C)C2 [Compound 2] > 3.02e-06 M

// Kd lookup, key: COc1cc(OC)c2c(c1)N(c1ccc3ncc(-c4cnn(C)c4)nc3n1)CCN(C(C)C)C2 [Compound 7] > 3.02e-06 M

// Kd lookup, key: COc1cc(OC)c2c(c1)N(c1ccc3ncn(-c4cnn(C)c4)c(=O)c3c1)CCN(C(C)C)C2 [Compound 11] > 3.02e-06 M

// Kd lookup, key: COc1cc(OC)c2c(c1F)N(c1ccc3ncn(-c4cnn(C)c4)c(=O)c3c1)CCN(C(C)C)C2 [Compound 12] > 3.02e-06 M

---

Exercise: for every item that follows, state its recorded Kd.
target: VEGFR2 (Homo sapiens (Human), UniProt P35968); assay: Enzyme binding assay (KINOMEscan); conditions: DiscoveRx, pKd = -log Kd (M)
Sequence (P35968 20-1356): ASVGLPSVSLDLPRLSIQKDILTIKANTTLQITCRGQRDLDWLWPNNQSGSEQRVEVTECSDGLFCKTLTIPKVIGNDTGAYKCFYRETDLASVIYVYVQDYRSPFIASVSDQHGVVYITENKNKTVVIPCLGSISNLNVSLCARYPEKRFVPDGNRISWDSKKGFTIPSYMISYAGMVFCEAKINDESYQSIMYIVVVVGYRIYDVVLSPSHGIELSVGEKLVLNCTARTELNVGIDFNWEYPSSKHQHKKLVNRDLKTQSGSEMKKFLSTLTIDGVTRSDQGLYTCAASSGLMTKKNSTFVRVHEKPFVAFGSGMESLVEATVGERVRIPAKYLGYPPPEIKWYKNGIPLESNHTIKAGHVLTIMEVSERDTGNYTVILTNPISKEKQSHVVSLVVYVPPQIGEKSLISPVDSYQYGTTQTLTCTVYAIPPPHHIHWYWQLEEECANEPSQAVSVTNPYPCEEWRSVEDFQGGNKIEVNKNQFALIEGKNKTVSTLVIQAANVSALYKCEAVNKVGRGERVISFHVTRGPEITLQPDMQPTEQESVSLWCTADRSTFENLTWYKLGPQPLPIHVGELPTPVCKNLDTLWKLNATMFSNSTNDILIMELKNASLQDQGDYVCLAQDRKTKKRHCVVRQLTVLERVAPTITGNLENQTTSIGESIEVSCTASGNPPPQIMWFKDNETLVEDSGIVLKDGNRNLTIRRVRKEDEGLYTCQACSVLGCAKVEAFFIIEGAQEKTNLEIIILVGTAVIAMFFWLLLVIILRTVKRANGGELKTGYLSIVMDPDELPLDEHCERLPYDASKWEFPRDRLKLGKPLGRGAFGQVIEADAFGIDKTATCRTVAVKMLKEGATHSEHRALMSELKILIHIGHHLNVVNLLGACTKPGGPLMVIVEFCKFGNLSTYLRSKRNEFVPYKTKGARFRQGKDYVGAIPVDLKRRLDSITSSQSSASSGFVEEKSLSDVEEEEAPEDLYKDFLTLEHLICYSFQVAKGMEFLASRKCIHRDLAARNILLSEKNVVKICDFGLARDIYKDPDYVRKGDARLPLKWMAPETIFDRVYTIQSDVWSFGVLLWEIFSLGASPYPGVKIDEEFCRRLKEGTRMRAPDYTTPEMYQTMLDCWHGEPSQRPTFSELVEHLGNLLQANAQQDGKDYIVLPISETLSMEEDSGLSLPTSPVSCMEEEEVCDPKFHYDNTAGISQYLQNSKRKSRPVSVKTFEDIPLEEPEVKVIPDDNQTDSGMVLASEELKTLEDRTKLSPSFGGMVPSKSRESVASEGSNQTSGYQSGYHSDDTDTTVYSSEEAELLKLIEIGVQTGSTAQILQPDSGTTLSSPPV

// Kd lookup, key: CC(C)N1CCN(c2ccc3ncc(-c4cnn(C)c4)cc3c2)c2cc(O)cc(O)c2C1 [Compound 6] > 3.02e-06 M

// Kd lookup, key: COc1cc(OC)c2c(c1)N(c1ccc3ncc(-c4cn[nH]c4)cc3c1)CCN(C(C)C)C2 [Compound 3] > 3.02e-06 M

// Kd lookup, key: COc1cc(O)cc2c1CN(C(C)C)CCN2c1ccc2ncc(-c3cnn(C)c3)cc2c1 [Compound 4] > 3.02e-06 M

// Kd lookup, key: COc1cc(OC)c2c(c1)N(c1ccc3ncc(-c4cnn(C)c4)cc3n1)CCN(C(C)C)C2 [Compound 9] 1.05e-06 M
